# reported pIC50; entries follow
target.system: human Y4 receptor (human, UniProt P50391 1-375)
Sequence (P50391 whole entry): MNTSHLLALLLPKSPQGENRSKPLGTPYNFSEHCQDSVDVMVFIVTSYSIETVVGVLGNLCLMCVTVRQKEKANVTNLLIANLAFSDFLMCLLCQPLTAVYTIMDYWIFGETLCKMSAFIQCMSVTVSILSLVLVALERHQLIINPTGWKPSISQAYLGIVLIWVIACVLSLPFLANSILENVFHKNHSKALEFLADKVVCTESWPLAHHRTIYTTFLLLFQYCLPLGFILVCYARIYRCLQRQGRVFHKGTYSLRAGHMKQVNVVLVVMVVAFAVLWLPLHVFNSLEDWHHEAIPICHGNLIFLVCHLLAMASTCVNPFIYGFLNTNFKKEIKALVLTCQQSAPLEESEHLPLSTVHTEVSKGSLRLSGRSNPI
assay.overview: 125I-PP displacement
Scale: negative log10 of molar concentration, which is what pIC50 denotes.

Observe how each entry below is paired with its result.
1. APLEPHYPGDDATPQQMARYAAELRRYINLLTRPRY [4058056] :: 10.00
2. AAPLEPHYPGDNATPEQMAKYYSALRRYINKLTRPRY [4057758] :: 9.72
3. PAPLEPSYPGDNATPEQLAHYYSELRRYINKLTRPRY [4057781] :: 9.88
4. APLEPHYPGDNATPEQMAKYAAELRRYINKLTRPRY [4057764] :: 10.03
5. AAPLEPHYPGDNATPEQMAKYAADLRRYINKLTRPRF [4057746] :: 10.14

Sample AAPLEPSYPGDNATPEQMAHYYSELRRYINKLTRPRY [4057777] — what was its pIC50?
10.06
